- measured-target: human glucagon receptor (human, UniProt P47871 26-477)
- assay-summary: cell-based or functional assay
Starred links: 1 amine or outer side, 2 acyl side, 3 side chain; linkers in the order of their positions; H or OH if unused. Non-standard residues stand in square brackets, D forms with d. No end group written: not given here. 2,4‑diF‑APPA = 2-amino-5-(2,4-difluorophenyl)pentanoic acid, O=C([C@H](CCCc1ccc(F)cc1F)N[*:1])[*:2]; 2Cl,4OMe‑APPA = 2-amino-5-(2-chloro-4-methoxyphenyl)pentanoic acid; Bip(2'-Et-4'-OMe) = CCc1cc(OC)ccc1-c1ccc(C[C@H](N)C(=O)O)cc1; 2F‑APPA = 2-amino-5-(2-fluorophenyl)pentanoic acid; αMePhe(2-F) = C[C@](N)(Cc1ccccc1F)C(=O)O; NMeBip(OMe) = N-methylated Bip(OMe); NMeD = CN[C@@H](CC(=O)O)C(=O)O; aThr = C[C@H](O)[C@H](N)C(=O)O; NMeAPPA = not defined here; CNB = not defined here; Aib = CC(C)(N)C(=O)O
observation-type: inhibition of cAMP production, 10 µM (pmol/ml/µg prt)
Give bare numbers, in pmol/ml/µg prt.

H[Aib][CNB]G[aThr][αMePhe(2-F)][aThr]SD[Bip(2'-Et-4'-OMe)][2F‑APPA] (reading uncertain; also: reduced (CH2) bonds Z9-Z10 and Z10-Z11) [Seq. ID. No. 204: H-Aib-(CNB)-G-T(allo)-(α-Me-2F-Phe)-T(allo)-SD-(CH2)-Bip(OMe)-(CH2)-(2F-APPA)] : 0
H[Aib][CNB]GTFTSD[Bip(2'-Et-4'-OMe)][2Cl,4OMe‑APPA] (reading uncertain) [Seq. ID. No. 84: H-Aib-(CNB)-GTFTSD-Bip(OMe)-(2Cl,4OMe-APPA)] : 0
H[Aib][CNB]G[aThr][αMePhe(2-F)][aThr]SD[Bip(2'-Et-4'-OMe)][2F‑APPA] (reading uncertain; also: thioamide bond between residues 10 and 11) [Seq. ID. No. 168: H-Aib-(CNB)-G-T(allo)-(α-Me-2F-Phe)-T(allo)-SD-Bip(OMe)-(C═S)-(2F-APPA)] : 16
H[Aib][CNB]GTFTSD[Bip(2'-Et-4'-OMe)][2,4‑diF‑APPA] (reading uncertain) [Seq. ID. No. 78: H-Aib-(CNB)-GTFTSD-Bip(OMe)-(2,4-diF-APPA)] : 18

// next item, inhibition of cAMP production, 10 µM requested
Request: Any idea what inhibition of cAMP production, 10 µM was measured for H[Aib][CNB]G[aThr][αMePhe(2-F)][aThr]S[NMeD][NMeBip(OMe)][NMeAPPA] (reading uncertain) [Seq. ID. No. 154: H-Aib-(CNB)-G-T(allo)-(α-Me-2F-Phe)-T(allo)-S-(NMe)D-((NMe)Bip(OMe))-((NMe)(APPA))] ?
Result: 0
